# MEASURED ON: monkey CD19-his protein (monkey)
# EXPERIMENT: ELISA, monkey CD19 coated
# Procedure: After incubation for 2 h at 37° C., the plate was washed 3 times with PBS. […] After incubation for 1 h at 37° C., the plate was washed 5 times with PBS. A TMB substrate was added at 50 μL/well. After incubation at room temperature for 10 min, a stop solution (1.0 N HCl) was added at 50 μL/well. The OD450 nm values were read on an ELISA microplate reader (Multimode Plate Reader, EnSight, purchased from Perkin Elmer). […]
REPORTED ENDPOINT: OD450 at 1.00 nM (OD450)
Give bare numbers, in OD450.

Consider the worked cases shown below.
| BINDER | UNIT ANNOTATION | REPORTED VALUE |
| --- | --- | --- |
| FMC63.27-mIgG1 (antibody, V domains shown, Humanized FMC63; also called FMC63-L2H7) VH: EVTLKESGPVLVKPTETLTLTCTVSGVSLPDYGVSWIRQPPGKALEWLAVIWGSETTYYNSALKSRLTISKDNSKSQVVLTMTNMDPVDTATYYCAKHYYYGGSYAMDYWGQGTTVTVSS VL: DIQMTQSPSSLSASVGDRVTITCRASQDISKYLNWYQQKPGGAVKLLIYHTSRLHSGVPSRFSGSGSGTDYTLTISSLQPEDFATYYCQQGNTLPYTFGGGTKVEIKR | OD450 | 0.05 |
| FMC63-mIgG1 (antibody, V domains shown, Parent murine antibody; also called murine antibody FMC63) VH: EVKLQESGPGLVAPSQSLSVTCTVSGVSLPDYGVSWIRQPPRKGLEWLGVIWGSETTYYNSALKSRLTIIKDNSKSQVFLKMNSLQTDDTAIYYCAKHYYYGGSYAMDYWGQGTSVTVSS VL: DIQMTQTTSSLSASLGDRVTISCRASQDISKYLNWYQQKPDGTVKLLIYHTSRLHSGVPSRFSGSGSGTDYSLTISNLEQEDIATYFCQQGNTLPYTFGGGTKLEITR | OD450 | 0.05 |
| FMC63.25-mIgG1 (antibody, V domains shown, Humanized FMC63; also called FMC63-L2H5) VH: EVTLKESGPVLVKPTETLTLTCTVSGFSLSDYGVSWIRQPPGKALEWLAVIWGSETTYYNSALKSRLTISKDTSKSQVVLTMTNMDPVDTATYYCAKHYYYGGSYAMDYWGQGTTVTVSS VL: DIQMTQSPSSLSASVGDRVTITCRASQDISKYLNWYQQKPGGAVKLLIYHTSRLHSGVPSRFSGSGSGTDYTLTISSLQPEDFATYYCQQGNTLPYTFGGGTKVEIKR | OD450 | 0.08 |

Q. Name the reported OD450 at 1.00 nM value associated with the binder FMC63.26-mIgG1 (antibody, V domains shown, Humanized FMC63; also called FMC63-L2H6) VH: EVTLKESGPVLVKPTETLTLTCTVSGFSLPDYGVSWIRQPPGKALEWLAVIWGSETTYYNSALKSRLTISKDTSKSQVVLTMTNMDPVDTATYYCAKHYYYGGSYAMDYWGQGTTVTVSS VL: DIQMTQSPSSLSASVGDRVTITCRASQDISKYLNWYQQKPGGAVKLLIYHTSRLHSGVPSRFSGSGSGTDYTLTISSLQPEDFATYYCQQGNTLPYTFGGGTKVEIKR
A. 0.05
